- target of assay: human TRPV1 (Homo sapiens)
- Construct: expressed in transfected cells; host or cells: HEK293
- Sequence (Q8NER1 whole entry): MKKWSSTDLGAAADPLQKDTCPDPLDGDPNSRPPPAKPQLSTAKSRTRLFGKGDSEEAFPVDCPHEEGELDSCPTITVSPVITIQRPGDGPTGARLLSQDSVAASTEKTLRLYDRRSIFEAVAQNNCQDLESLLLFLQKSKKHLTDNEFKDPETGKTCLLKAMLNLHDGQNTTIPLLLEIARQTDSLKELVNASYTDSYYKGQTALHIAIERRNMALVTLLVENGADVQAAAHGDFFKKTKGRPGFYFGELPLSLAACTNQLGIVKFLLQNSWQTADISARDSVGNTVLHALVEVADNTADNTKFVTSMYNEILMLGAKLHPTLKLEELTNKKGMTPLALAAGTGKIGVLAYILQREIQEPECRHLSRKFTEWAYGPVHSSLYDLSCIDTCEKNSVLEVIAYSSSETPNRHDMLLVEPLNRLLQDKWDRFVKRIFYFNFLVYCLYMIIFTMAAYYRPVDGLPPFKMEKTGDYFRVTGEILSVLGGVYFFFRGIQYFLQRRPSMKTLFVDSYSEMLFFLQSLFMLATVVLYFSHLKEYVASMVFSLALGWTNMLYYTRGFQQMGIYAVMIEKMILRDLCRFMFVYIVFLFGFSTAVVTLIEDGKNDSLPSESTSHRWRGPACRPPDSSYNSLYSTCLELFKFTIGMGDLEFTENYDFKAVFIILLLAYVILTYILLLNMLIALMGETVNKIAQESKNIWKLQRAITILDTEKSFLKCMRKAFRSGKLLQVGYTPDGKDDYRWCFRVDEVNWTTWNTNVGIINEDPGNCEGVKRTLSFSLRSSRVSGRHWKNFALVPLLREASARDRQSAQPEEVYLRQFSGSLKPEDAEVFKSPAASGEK
- procedure text: FLIPR assay in HEK293 cells expressing human TRPV1
- Assay type: cell-based
- condition parameters: Δ^9-THC 240 μM, cannabinol 600 μM, others 120 μM

| molecule | target of assay | activation of TRPV1 |
| --- | --- | --- |
| CCCCC/C=C\C/C=C\C/C=C\C/C=C\CCCC(=O)OC(CO)CO [2-AG, 2-arachidonylglycerol] | human TRPV1 (Homo sapiens) | activated |
| CCCCC/C=C\C/C=C\C/C=C\C/C=C\CCCC(=O)NCCO [Anandamide, N-arachidonoylethanolamine] | human TRPV1 (Homo sapiens) | activated |
| CCCCC/C=C\C/C=C\C/C=C\C/C=C\CCCC(=O)Nc1ccc(O)cc1 [AM404] | human TRPV1 (Homo sapiens) | activated |

* * *

- target of assay: rat TRPV2 (Rattus norvegicus, UniProt Q9WUD2, A713V/L151P/T158I)
- Construct: A cDNA fragment encoding the full-length rat TRPV2 was subcloned into pCI-neo
- procedure text: FLIPR calcium mobilization assay in rat TRPV2-expressing HEK293 cells
- condition parameters: FLIPR, rat TRPV2-expressing HEK293 cells; read-out: EC50 (activation of rat TRPV2)
endpoint: EC50

Here are 2 molecules together with their reported answers.
| compound string | EC50 |
| --- | --- |
| CCCCCc1cc(O)c2c(c1)OC(C)(C)c1ccc(C)cc1-2 | 77.7 µM |
| C=C(C)[C@@H]1CCC(C)=C[C@H]1C1=C(O)C(=O)C(CCCCC)=CC1=O | ~14 µM |

We now examine a further molecule.
Input: Using rat TRPV2 (Rattus norvegicus, UniProt Q9WUD2, A713V/L151P/T158I) as the test system, report measured EC50 of C=C(C)[C@@H]1CCC(C)=C[C@H]1c1c(O)cc(C)cc1O .
Output: ~20 µM

* * *

Listed here are molecules together with their documented Emax at 100 µM.
- target of assay: rat TRPV2 (Rattus norvegicus, UniProt Q9WUD2, A713V/L151P/T158I)
- Construct: A cDNA fragment encoding the full-length rat TRPV2 was subcloned into pCI-neo; expressed in transfected cells
- Sequence (Q9WUD2 1-761 L151P/T158I/A713V): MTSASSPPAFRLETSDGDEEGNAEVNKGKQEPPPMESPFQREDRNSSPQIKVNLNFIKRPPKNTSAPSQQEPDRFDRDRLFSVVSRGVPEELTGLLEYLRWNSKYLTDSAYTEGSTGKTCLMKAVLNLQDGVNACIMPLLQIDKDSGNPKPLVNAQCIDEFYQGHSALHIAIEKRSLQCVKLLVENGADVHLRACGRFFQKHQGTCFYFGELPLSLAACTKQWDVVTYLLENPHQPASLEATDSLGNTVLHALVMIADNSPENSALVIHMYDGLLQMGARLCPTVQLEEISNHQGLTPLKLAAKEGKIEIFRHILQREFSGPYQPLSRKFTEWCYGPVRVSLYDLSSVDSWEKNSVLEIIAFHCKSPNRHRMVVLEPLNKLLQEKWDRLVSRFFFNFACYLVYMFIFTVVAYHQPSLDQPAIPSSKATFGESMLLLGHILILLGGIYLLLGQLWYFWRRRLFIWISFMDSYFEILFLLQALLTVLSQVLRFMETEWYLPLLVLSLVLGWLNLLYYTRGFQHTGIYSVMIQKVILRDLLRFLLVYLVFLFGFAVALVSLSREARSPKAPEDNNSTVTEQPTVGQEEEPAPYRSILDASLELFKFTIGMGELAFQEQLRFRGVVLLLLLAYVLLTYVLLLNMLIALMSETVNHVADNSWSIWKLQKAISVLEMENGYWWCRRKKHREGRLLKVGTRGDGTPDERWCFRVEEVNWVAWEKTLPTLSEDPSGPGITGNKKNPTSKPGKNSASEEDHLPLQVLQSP
- procedure text: FLIPR calcium mobilization assay in rat TRPV2-expressing HEK293 cells
- Type: cell-based
- condition parameters: HEK293; read-out: % Response (activation of rat TRPV2)

| molecule | target of assay | Emax at 100 µM |
| --- | --- | --- |
| C=C(C)[C@@H]1CCC(C)=CC1c1c(OC)cc(C)cc1OC (some centres unmarked) | rat TRPV2 (Rattus norvegicus, UniProt Q9WUD2, A713V/L151P/T158I) | 6% |
| CCCCC/C=C\C/C=C\C/C=C\C/C=C\CCCC(=O)NCCO [Anandamide, N-arachidonoylethanolamine] | rat TRPV2 (Rattus norvegicus, UniProt Q9WUD2, A713V/L151P/T158I) | 0% |
| CCCCC/C=C\C/C=C\C/C=C\C/C=C\CCCC(=O)OC(CO)CO | rat TRPV2 (Rattus norvegicus, UniProt Q9WUD2, A713V/L151P/T158I) | 30% |

Input: Report Emax at 100 µM, nothing else, for this molecule: CCCCCc1cc(O)c2c(c1)OC(C)(C)c1ccc(C)cc1-2
Output: 68%

Input: Specify measured Emax at 100 µM for C=C(C)[C@@H]1CCC(C)=C[C@H]1c1c(O)cc(C)cc1O .
Output: 95%
